Just for reference, patent US12493040B2 is where these values come from.

- Tested on: RNAi-treated eri-1 (mg366) nematodes
- Assay Notes: RNAi screening of olfactory receptor genes: chemotaxis assay of RNAi-treated nematodes to odorants
- Type: in vivo, Caenorhabditis elegans
- Condition Description: srh-69 RNAi-treated nematodes; repellent or high concentration of attractant

{"Structure String": "CCCCCCCC(C)=O", "chemotaxis index": "−0.84"}
{"Structure String": "CC(C)CCO", "chemotaxis index": "−0.94"}
{"Structure String": "CCCCCCCCO", "chemotaxis index": "−0.61"}
{"Structure String": "CC(=O)C(C)=O", "chemotaxis index": "−0.76"}
{"Structure String": "O=Cc1ccccc1", "chemotaxis index": "−0.87"}
